Species on record: Homo sapiens
experiment_notes: Selectivity ratio of EC50 for human MC3R to EC50 for human MC1R
*1 amine or outer side, *2 acyl side, *3 side chain or, on linkers, in order; H or OH if unused. Where a SMILES comes first, the peptide text is derived from it. Bridges are numbered along the chain shown (N, C = ends). [ ]: non-standard residue; d: D form. X3 = NC(=O)/C(=C(\C(=O)O)[*:2])[*:1]; CH2COCH2 = O=C(C[*:1])C[*:2]; Nle = CCCC[C@H](N)C(=O)O
# Ratio EC50 >= 40 gives class 1, anything below gives class 0

Consider the following illustrative entries.
## Task Assess whether reported Ratio EC50 for `CC[C@H](C)[C@@H]1NC(=O)[C@@H]2CCCN2C(=O)[C@H](Cc2c[nH]c3ccccc23)NC(=O)[C@H](CCCNC(=N)N)N(C)C(=O)[C@H](Cc2ccccc2)NC(=O)[C@H](Cc2cnc[nH]2)NC(=O)[C@H]([C@@H](C)O)NC(=O)[C@H](NC(C)=O)CCSCc2ccccc2CSCC[C@H](C(N)=O)NC1=O` sits at 40 or higher.
## Result class 1

## Task Assess whether reported Ratio EC50 for `CC[C@H](C)[C@@H]1NC(=O)[C@@H]2CCCN2C(=O)[C@H](Cc2c[nH]c3ccccc23)NC(=O)[C@H](CCCNC(=N)N)N(C)C(=O)[C@H](Cc2ccccc2)NC(=O)[C@H](Cc2cnc[nH]2)NC(=O)[C@H]([C@@H](C)O)NC(=O)[C@H](NC(C)=O)CCSCc2cccc(c2)CSCC[C@H](C(N)=O)NC1=O` sits at 40 or higher.
## Result class 1

More entries:
## Task Assess whether reported Ratio EC50 for CCCC[C@@H]1NC(=O)[C@@H]2CS/C(C(=O)O)=C(/C(N)=O)SC[C@H](NC(=O)[C@H](CCCNC(=N)N)NC(=O)[C@H](CC(=O)O)NC(=O)[C@H](Cc3c[nH]c4ccccc34)NC(=O)[C@H](CCCNC(=N)N)NC(=O)[C@H](Cc3ccccc3)NC(=O)[C@H](Cc3cnc[nH]3)NC(=O)CNC1=O)C(=O)N[C@@H](Cc1cnc[nH]1)C(=O)N[C@@H](Cc1ccccc1)C(=O)N[C@@H](CCCNC(=N)N)C(=O)N[C@@H](Cc1c[nH]c3ccccc13)C(=O)N[C@@H](CCCNC(=N)N)C(=O)N2 (cyclo(CHFRWRC[Nle]GHFRWDR); linker 1-7 via X3) sits at 40 or higher.
## Result class 0

## Task Assess whether reported Ratio EC50 for CCCC[C@@H]1NC(=O)[C@@H]2CSCC(=O)CSC[C@H](NC(=O)[C@H](CCCNC(=N)N)NC(=O)[C@H](CC(=O)O)NC(=O)[C@H](Cc3c[nH]c4ccccc34)NC(=O)[C@H](CCCNC(=N)N)NC(=O)[C@H](Cc3ccccc3)NC(=O)[C@H](Cc3cnc[nH]3)NC(=O)CNC1=O)C(=O)N[C@@H](Cc1cnc[nH]1)C(=O)N[C@@H](Cc1ccccc1)C(=O)N[C@@H](CCCNC(=N)N)C(=O)N[C@@H](Cc1c[nH]c3ccccc13)C(=O)N[C@@H](CCCNC(=N)N)C(=O)N2 (cyclo(CHFRWRC[Nle]GHFRWDR); linker 1-7 via CH2COCH2) sits at 40 or higher.
## Result class 0

###

Species on record: Homo sapiens
experiment_notes: Selectivity ratio of Ki for human MC4R to Ki for human MC1R
*1 amine or outer side, *2 acyl side, *3 side chain or, on linkers, in order; H or OH if unused. Where a SMILES comes first, the peptide text is derived from it. Bridges are numbered along the chain shown (N, C = ends). [ ]: non-standard residue; d: D form. X4 = C#CCCCCN1C(=O)C([*:1])=C([*:2])C1=O; X3 = NC(=O)/C(=C(\C(=O)O)[*:2])[*:1]; CH2COCH2 = O=C(C[*:1])C[*:2]; Nle = CCCC[C@H](N)C(=O)O; X7 = C(C[*:1])C[*:2]
Ratio Ki strictly less than 30 = class 1. Otherwise class 0.

Consider the following illustrative entries.
## Task Item CCCC[C@@H]1NC(=O)[C@@H]2CSCCCSC[C@H](NC(=O)[C@H](CCCNC(=N)N)NC(=O)[C@H](CC(=O)O)NC(=O)[C@H](Cc3c[nH]c4ccccc34)NC(=O)[C@H](CCCNC(=N)N)NC(=O)[C@H](Cc3ccccc3)NC(=O)[C@H](Cc3cnc[nH]3)NC(=O)CNC1=O)C(=O)N[C@@H](Cc1cnc[nH]1)C(=O)N[C@@H](Cc1ccccc1)C(=O)N[C@@H](CCCNC(=N)N)C(=O)N[C@@H](Cc1c[nH]c3ccccc13)C(=O)N[C@@H](CCCNC(=N)N)C(=O)N2 (cyclo(CHFRWRC[Nle]GHFRWDR); linker 1-7 via X7) : Ratio Ki beneath 30, strictly?
## Result class 0

## Task Item C#CCCCCN1C(=O)C2=C(SC[C@@H]3NC(=O)[C@H](CCCNC(=N)N)NC(=O)[C@H](CC(=O)O)NC(=O)[C@H](Cc4c[nH]c5ccccc45)NC(=O)[C@H](CCCNC(=N)N)NC(=O)[C@H](Cc4ccccc4)NC(=O)[C@H](Cc4cnc[nH]4)NC(=O)CNC(=O)[C@H](CCCC)NC(=O)[C@H](CS2)NC(=O)[C@H](CCCNC(=N)N)NC(=O)[C@H](Cc2c[nH]c4ccccc24)NC(=O)[C@H](CCCNC(=N)N)NC(=O)[C@H](Cc2ccccc2)NC(=O)[C@H](Cc2cnc[nH]2)NC3=O)C1=O (cyclo(CHFRWRC[Nle]GHFRWDR); linker 1-7 via X4) : Ratio Ki beneath 30, strictly?
## Result class 0

## Task Item CCCC[C@@H]1NC(=O)[C@@H]2CSCC(=O)CSC[C@H](NC(=O)[C@H](CCCNC(=N)N)NC(=O)[C@H](CC(=O)O)NC(=O)[C@H](Cc3c[nH]c4ccccc34)NC(=O)[C@H](CCCNC(=N)N)NC(=O)[C@H](Cc3ccccc3)NC(=O)[C@H](Cc3cnc[nH]3)NC(=O)CNC1=O)C(=O)N[C@@H](Cc1cnc[nH]1)C(=O)N[C@@H](Cc1ccccc1)C(=O)N[C@@H](CCCNC(=N)N)C(=O)N[C@@H](Cc1c[nH]c3ccccc13)C(=O)N[C@@H](CCCNC(=N)N)C(=O)N2 (cyclo(CHFRWRC[Nle]GHFRWDR); linker 1-7 via CH2COCH2) : Ratio Ki beneath 30, strictly?
## Result class 1

More entries:
## Task Item `CC[C@H](C)[C@@H]1NC(=O)[C@@H]2CCCN2C(=O)[C@H](Cc2c[nH]c3ccccc23)NC(=O)[C@H](CCCNC(=N)N)N(C)C(=O)[C@H](Cc2ccccc2)NC(=O)[C@H](Cc2cnc[nH]2)NC(=O)[C@H]([C@@H](C)O)NC(=O)[C@H](NC(C)=O)CCSSCC[C@H](C(N)=O)NC1=O` : Ratio Ki beneath 30, strictly?
## Result class 1

## Task Item CCCC[C@@H]1NC(=O)[C@@H]2CS/C(C(=O)O)=C(/C(N)=O)SC[C@H](NC(=O)[C@H](CCCNC(=N)N)NC(=O)[C@H](CC(=O)O)NC(=O)[C@H](Cc3c[nH]c4ccccc34)NC(=O)[C@H](CCCNC(=N)N)NC(=O)[C@H](Cc3ccccc3)NC(=O)[C@H](Cc3cnc[nH]3)NC(=O)CNC1=O)C(=O)N[C@@H](Cc1cnc[nH]1)C(=O)N[C@@H](Cc1ccccc1)C(=O)N[C@@H](CCCNC(=N)N)C(=O)N[C@@H](Cc1c[nH]c3ccccc13)C(=O)N[C@@H](CCCNC(=N)N)C(=O)N2 (cyclo(CHFRWRC[Nle]GHFRWDR); linker 1-7 via X3) : Ratio Ki beneath 30, strictly?
## Result class 0

## Task Item `CC[C@H](C)[C@@H]1NC(=O)[C@@H]2CCCN2C(=O)[C@H](Cc2c[nH]c3ccccc23)NC(=O)[C@H](CCCNC(=N)N)N(C)C(=O)[C@H](Cc2ccccc2)NC(=O)[C@H](Cc2cnc[nH]2)NC(=O)[C@H]([C@@H](C)O)NC(=O)[C@H](NC(C)=O)CCSCc2cccc(c2)CSCC[C@H](C(N)=O)NC1=O` : Ratio Ki beneath 30, strictly?
## Result class 1

###

Species: Homo sapiens
experiment_notes: Selectivity ratio of Ki for human MC3R to Ki for human MC1R
*1 amine or outer side, *2 acyl side, *3 side chain or, on linkers, in order; H or OH if unused. Where a SMILES comes first, the peptide text is derived from it. Bridges are numbered along the chain shown (N, C = ends). [ ]: non-standard residue; d: D form. NMeR = CN[C@@H](CCCNC(=N)N)C(=O)O; CH2COCH2 = O=C(C[*:1])C[*:2]; X1 = n1nc([*:2])nnc1[*:1]; Nle = CCCC[C@H](N)C(=O)O
Answer each item with its documented Ratio Ki.

## Task Note down Ratio Ki recorded for CC[C@H](C)[C@@H]1NC(=O)[C@@H]2CCCN2C(=O)[C@H](Cc2c[nH]c3ccccc23)NC(=O)[C@H](CCCNC(=N)N)N(C)C(=O)[C@H](Cc2ccccc2)NC(=O)[C@H](Cc2cnc[nH]2)NC(=O)[C@H]([C@@H](C)O)NC(=O)[C@@H](NC(C)=O)CSSC[C@@H](C(N)=O)NC1=O (Ac-CTHF[NMeR]WPIC-NH2; disulfide 1-9)
## Result 20

## Task Note down Ratio Ki recorded for CCCC[C@@H]1NC(=O)[C@@H]2CSCC(=O)CSC[C@H](NC(=O)[C@H](CCCNC(=N)N)NC(=O)[C@H](CC(=O)O)NC(=O)[C@H](Cc3c[nH]c4ccccc34)NC(=O)[C@H](CCCNC(=N)N)NC(=O)[C@H](Cc3ccccc3)NC(=O)[C@H](Cc3cnc[nH]3)NC(=O)CNC1=O)C(=O)N[C@@H](Cc1cnc[nH]1)C(=O)N[C@@H](Cc1ccccc1)C(=O)N[C@@H](CCCNC(=N)N)C(=O)N[C@@H](Cc1c[nH]c3ccccc13)C(=O)N[C@@H](CCCNC(=N)N)C(=O)N2 (cyclo(CHFRWRC[Nle]GHFRWDR); linker 1-7 via CH2COCH2)
## Result 11

Attention now turns to another entry.
## Task Note down Ratio Ki recorded for CCCC[C@@H]1NC(=O)[C@@H]2CSc3nnc(nn3)SC[C@H](NC(=O)[C@H](CCCNC(=N)N)NC(=O)[C@H](CC(=O)O)NC(=O)[C@H](Cc3c[nH]c4ccccc34)NC(=O)[C@H](CCCNC(=N)N)NC(=O)[C@H](Cc3ccccc3)NC(=O)[C@H](Cc3cnc[nH]3)NC(=O)CNC1=O)C(=O)N[C@@H](Cc1cnc[nH]1)C(=O)N[C@@H](Cc1ccccc1)C(=O)N[C@@H](CCCNC(=N)N)C(=O)N[C@@H](Cc1c[nH]c3ccccc13)C(=O)N[C@@H](CCCNC(=N)N)C(=O)N2 (cyclo(CHFRWRC[Nle]GHFRWDR); linker 1-7 via X1)
## Result 15
